study_system: Voltage-dependent T-type calcium channel subunit alpha-1H (Homo sapiens, UniProt O95180)
Sequence (O95180 whole entry): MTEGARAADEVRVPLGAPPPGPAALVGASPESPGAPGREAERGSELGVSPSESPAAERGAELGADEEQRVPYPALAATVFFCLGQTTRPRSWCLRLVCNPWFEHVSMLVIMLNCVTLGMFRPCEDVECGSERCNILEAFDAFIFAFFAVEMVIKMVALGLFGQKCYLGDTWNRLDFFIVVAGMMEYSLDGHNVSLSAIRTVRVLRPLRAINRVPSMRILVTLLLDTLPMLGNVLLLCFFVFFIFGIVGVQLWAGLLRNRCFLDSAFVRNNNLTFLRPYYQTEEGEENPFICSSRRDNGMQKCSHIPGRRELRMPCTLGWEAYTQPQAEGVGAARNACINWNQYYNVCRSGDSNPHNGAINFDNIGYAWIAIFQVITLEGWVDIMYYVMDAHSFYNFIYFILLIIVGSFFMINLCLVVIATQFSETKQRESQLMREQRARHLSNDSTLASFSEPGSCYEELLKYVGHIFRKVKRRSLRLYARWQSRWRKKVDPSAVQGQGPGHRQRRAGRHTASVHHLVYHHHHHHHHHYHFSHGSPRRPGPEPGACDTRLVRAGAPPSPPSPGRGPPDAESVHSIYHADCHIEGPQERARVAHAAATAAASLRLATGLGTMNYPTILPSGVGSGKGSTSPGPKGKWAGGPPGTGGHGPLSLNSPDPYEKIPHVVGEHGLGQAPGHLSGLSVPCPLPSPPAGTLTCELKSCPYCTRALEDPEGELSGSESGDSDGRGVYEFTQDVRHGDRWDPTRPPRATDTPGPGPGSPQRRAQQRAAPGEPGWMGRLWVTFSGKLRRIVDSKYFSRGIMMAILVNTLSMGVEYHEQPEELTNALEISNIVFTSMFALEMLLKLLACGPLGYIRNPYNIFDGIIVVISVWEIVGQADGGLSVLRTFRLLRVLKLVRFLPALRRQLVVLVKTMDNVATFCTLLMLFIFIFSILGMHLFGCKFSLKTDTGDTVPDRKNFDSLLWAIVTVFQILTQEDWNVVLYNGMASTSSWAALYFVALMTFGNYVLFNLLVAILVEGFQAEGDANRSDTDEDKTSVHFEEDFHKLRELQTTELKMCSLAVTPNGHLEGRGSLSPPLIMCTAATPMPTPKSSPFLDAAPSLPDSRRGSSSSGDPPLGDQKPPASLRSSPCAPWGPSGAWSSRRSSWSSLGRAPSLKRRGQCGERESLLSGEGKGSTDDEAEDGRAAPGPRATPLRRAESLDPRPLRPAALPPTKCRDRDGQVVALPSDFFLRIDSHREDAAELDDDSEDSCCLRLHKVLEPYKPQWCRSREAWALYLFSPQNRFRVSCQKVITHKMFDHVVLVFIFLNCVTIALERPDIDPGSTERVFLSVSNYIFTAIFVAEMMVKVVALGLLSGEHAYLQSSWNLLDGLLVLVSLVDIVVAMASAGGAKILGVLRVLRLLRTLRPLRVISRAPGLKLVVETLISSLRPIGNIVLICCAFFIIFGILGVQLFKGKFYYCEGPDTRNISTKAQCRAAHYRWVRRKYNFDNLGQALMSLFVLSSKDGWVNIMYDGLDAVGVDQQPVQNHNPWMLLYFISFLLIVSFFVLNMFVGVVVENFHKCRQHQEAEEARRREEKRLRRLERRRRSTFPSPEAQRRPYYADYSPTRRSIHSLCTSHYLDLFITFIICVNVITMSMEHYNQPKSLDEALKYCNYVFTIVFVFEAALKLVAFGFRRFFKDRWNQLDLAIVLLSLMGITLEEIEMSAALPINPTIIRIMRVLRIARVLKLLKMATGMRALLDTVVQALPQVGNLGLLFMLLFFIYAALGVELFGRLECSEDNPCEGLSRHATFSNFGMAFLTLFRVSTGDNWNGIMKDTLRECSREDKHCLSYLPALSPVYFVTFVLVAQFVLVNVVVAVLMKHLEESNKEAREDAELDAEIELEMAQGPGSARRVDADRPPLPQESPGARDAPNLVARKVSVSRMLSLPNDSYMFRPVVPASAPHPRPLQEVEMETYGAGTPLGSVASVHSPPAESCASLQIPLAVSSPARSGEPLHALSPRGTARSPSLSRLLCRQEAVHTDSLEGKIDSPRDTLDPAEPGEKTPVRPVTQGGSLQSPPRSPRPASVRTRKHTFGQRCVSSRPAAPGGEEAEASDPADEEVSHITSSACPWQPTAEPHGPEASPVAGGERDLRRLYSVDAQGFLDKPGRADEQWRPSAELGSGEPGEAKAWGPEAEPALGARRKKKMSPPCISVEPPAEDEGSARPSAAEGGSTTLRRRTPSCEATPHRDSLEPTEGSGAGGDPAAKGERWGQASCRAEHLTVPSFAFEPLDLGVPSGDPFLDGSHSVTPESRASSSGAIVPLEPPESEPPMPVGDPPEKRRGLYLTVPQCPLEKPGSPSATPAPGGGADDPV
test: Inhibition of human CaV3.2 expressed in HEK293 cells assessed as suppression of T-current amplitude by measuring remaining activity at 3 uM after 10 mins by whole cell patch clamp method relative to control
Format: cell-based
# note: boundary value 70% maps to -1; Activity below it maps to 1

Data request: API: query returns whether the molecule falls strictly under 70% in Activity. Query: CCC(CC)CCc1c(O)cc2c(c1O)C(=O)CC(c1ccc(O)cc1)O2 (configuration not stated)
Data returned: 1

Data request: Threshold test, Activity < 70%: CC(C)=CCc1c(O)cc2c(c1O)C(=O)CC(c1ccccc1O)O2 (configuration not stated)
Data returned: 1

Data request: In the record for CC(C)=CCc1c(O)cc2c(c1O)C(=O)CC(c1cccc(O)c1O)O2 (configuration not stated) , is Activity less than 70%?
Data returned: 1

Data request: Bench note: check whether CC(C)=CCc1c(O)cc2c(c1O)C(=O)CC(c1cccc(O)c1)O2 (configuration not stated) shows Activity below 70%
Data returned: 1

Data request: Hello, I'm reviewing records and need to know if Activity of CCC(=CCc1c(O)cc2c(c1O)C(=O)CC(c1ccccc1O)O2)CC (configuration not stated) is below 70%. Could you check?
Data returned: 1

Data request: Strictly below 70% in Activity? CC(C)=CCc1c(O)cc2c(c1O)C(=O)CC(c1ccccc1)O2 (configuration not stated)
Data returned: -1

Data request: Dear colleague, could you confirm whether Activity of CC(C)=CCc1ccc2c(c1O)C(=O)CC(c1ccc(Cl)cc1)O2 (configuration not stated) falls below 70%? Thanks.
Data returned: -1

Data request: Given CC(C)=CCc1c(O)cc2c(c1O)C(=O)CC(c1c(O)cccc1O)O2 (configuration not stated) , is recorded Activity strictly lower than 70%?
Data returned: 1

Data request: Field: below-cutoff. Rule: recorded Activity strictly less than 70%. Subject: C=CCc1c(O)cc2c(c1O)C(=O)CC(c1cc(O)cc(O)c1)O2 (configuration not stated)
Data returned: -1

Data request: A record lists CC(C)=CCc1c(O)cc2c(c1O)C(=O)CC(c1ccc(O)cc1)O2 (racemic) . Is its Activity below 70%?
Data returned: 1

Data request: Consider the molecule COc1ccc(C2CC(=O)c3c(cc(O)c(CC=C(C)C)c3O)O2)cc1 (configuration not stated) . Is its Activity strictly less than 70%?
Data returned: 1

Data request: Consider O=C1CC(c2ccc(O)cc2)Oc2cc(O)c(CC=C3CCCC3)c(O)c21 (configuration not stated) . Does its Activity lie strictly below 70%?
Data returned: 1

Data request: Is Activity strictly under 70% for the entry C=CCc1ccc2c(c1O)C(=O)CC(c1ccccc1)O2 (configuration not stated) ?
Data returned: -1

Data request: Please indicate whether the reported Activity of C=CCc1c(O)cc2c(c1O)C(=O)CC(c1cccc(O)c1)O2 (configuration not stated) is strictly below 70%.
Data returned: -1

Data request: Field: below-cutoff. Rule: recorded Activity strictly less than 70%. Subject: C=CCc1c(O)cc2c(c1O)C(=O)CC(c1ccc(O)c(O)c1)O2 (configuration not stated)
Data returned: -1

Data request: Strictly below 70% in Activity? C=CCc1ccc2c(c1O)C(=O)CC(c1ccc(Cl)cc1)O2 (configuration not stated)
Data returned: 1

Data request: Determine whether this molecule shows Activity lower than 70% (ties excluded): CC(C)=CCc1c(O)cc2c(c1O)C(=O)CC(c1ccc(Cl)cc1)O2 (configuration not stated)
Data returned: 1

Data request: Determine if CCC(=CCc1c(O)cc2c(c1O)C(=O)CC(c1ccc(O)cc1)O2)CC (configuration not stated) shows Activity strictly lower than 70%.
Data returned: 1

Data request: Strictly below 70% in Activity? CCC(=CCc1ccc2c(c1O)C(=O)CC(c1ccccc1O)O2)CC (configuration not stated)
Data returned: 1

Data request: I wonder whether C=CCc1c(O)cc2c(c1O)C(=O)CC(c1cccc(O)c1O)O2 (configuration not stated) has Activity below 70%. Can you tell?
Data returned: -1

Data request: is_below(Activity, 70%) for CC(C)=CCc1ccc2c(c1O)C(=O)CC(c1ccc(C)cc1)O2 (configuration not stated) ?
Data returned: -1

Data request: Does C=CCc1c(O)cc2c(c1O)C(=O)CC(c1ccccc1O)O2 (configuration not stated) have Activity strictly under 70%?
Data returned: 1
